These entries and their values trace back to patent US7396837B2.

Recorded GI50, one value per entry.
# System: SK-MEL-28
# experimental details: SRB colorimetric cell growth inhibition assay, SK-MEL-28
# Type: cell-based
# stated conditions: Homo sapiens, SK-MEL-28, MEL-28; GI=growth inhibition; read-out: GI50 MEL-28
measurement name: GI50 (µM)

[[record]]
compound = "COc1cc(-c2c3c4cc(OC)c(OC(=O)CCCCCN)cc4oc(=O)c3n3ccc4cc(OC(=O)CCCCCN)c(OC)cc4c23)ccc1OC(=O)CCCCCN [Compound 169]"
observed_value = 0.0464

[[record]]
compound = "COc1cc2c(cc1OC)-c1c(-c3ccc(OC(=O)CCCC[C@@H]4SC[C@@H]5NC(=O)N[C@@H]54)c(OC)c3)c3c4cc(OC)c(OC(=O)CCCC[C@@H]5SC[C@@H]6NC(=O)N[C@@H]65)cc4oc(=O)c3n1CC2 [Compound 47]"
observed_value = 2.07

[[record]]
compound = "COc1cc(-c2c3n(c4c(=O)oc5cc(OC(=O)[C@H](C)N)c(OC)cc5c24)CCc2cc(OC(=O)[C@H](C)N)c(OC)cc2-3)ccc1OC(=O)[C@H](C)N [Compound 42]"
observed_value = 1.23

[[record]]
compound = "COc1cc(-c2c3c4cc(OC)c(OC(=O)[C@@H](N)CC(C)C)cc4oc(=O)c3n3ccc4cc(OC(=O)[C@@H](N)CC(C)C)c(OC)cc4c23)ccc1OC(=O)[C@@H](N)CC(C)C [Compound 181]"
observed_value = 0.0168

[[record]]
compound = "COc1cc(-c2c3c4cc(OC)c(OC(=O)[C@@H](N)CO)cc4oc(=O)c3n3ccc4c(OC(=O)[C@@H](N)CO)c(OC)c(OC)cc4c23)ccc1OC(=O)[C@@H](N)CO [Compound 9]"
observed_value = 0.134

[[record]]
compound = "COc1cc(-c2c3n(c4c(=O)oc5cc(OC(=O)[C@@H](N)COCc6ccccc6)c(OC)cc5c24)CCc2c-3cc(OC)c(OC)c2OC(=O)[C@@H](N)COCc2ccccc2)ccc1OC(=O)[C@@H](N)COCc1ccccc1 [Compound 66]"
observed_value = 1.42

[[record]]
compound = "COc1cc(-c2c3c4cc(OC)c(OC(=O)CCCCCN)cc4oc(=O)c3n3ccc4c(OC(=O)CCCCCN)c(OC)c(OC)cc4c23)ccc1OC(=O)CCCCCN [Compound 193]"
observed_value = 0.101

[[record]]
compound = "COc1cc2c(cc1O)oc(=O)c1c2c(-c2ccc(OC)c(OC)c2)c2c3cc(OC)c(O)cc3ccn21 [Compound 233]"
observed_value = 0.169

[[record]]
compound = "COc1cc(-c2c3c4cc(OC)c(OC(=O)CCC5CCCCC5)cc4oc(=O)c3n3ccc4cc(OC(=O)CCC5CCCCC5)c(OC)cc4c23)ccc1OC(=O)CCC1CCCCC1 [Compound 12]"
observed_value = 1.77

[[record]]
compound = "COc1cc(-c2c3n(c4c(=O)oc5cc(O)c(OC)cc5c24)CCc2cc(O)c(OC)cc2-3)ccc1O [Compound 109]"
observed_value = 0.885

[[record]]
compound = "COc1cc(-c2c3c4cc(OC)c(OC(=O)[C@H](C)NC(=O)OC(C)(C)C)cc4oc(=O)c3n3ccc4cc(OC(=O)[C@H](C)NC(=O)OC(C)(C)C)c(OC)cc4c23)ccc1OC(=O)[C@H](C)NC(=O)OC(C)(C)C [Compound 41]"
observed_value = 1.86

[[record]]
compound = "COc1cc(-c2c3c4cc(OC)c(OC(=O)[C@@H](N)C(C)C)cc4oc(=O)c3n3ccc4cc(OC(=O)[C@@H](N)C(C)C)c(OC)cc4c23)ccc1OC(=O)[C@@H](N)C(C)C [Compound 195]"
observed_value = 0.0441

[[record]]
compound = "COc1cc(-c2c3c4cc(OC)c(OC(C)C)cc4oc(=O)c3n3ccc4c(OC(C)C)c(OC)c(OC)cc4c23)ccc1OC(C)C [Compound 27]"
observed_value = 4.47

[[record]]
compound = "COc1cc2c(cc1O)CCn1c-2c(Br)c2c3cc(OC)c(O)cc3oc(=O)c21 [Compound 188]"
observed_value = 1.14

[[record]]
compound = "COc1cc2ccn3c(c(-c4ccc(OC(=O)[C@H](C)NC(=O)OC(C)(C)C)c(OC)c4)c4c5cc(OC)c(OC(=O)[C@H](C)NC(=O)OC(C)(C)C)cc5oc(=O)c43)c2cc1OC [Compound 77]"
observed_value = 3.29

[[record]]
compound = "COc1cc(-c2c3c4cc(OC)c(O)cc4oc(=O)c3n3ccc4cc(OC)c(OC)cc4c23)ccc1O [Compound 26]"
observed_value = 2.08

[[record]]
compound = "COc1cc(-c2c3n(c4c(=O)oc5cc(OC(=O)[C@@H](N)CO)c(OC)cc5c24)CCc2c-3cc(OC)c(OC)c2OC(=O)[C@@H](N)CO)ccc1OC(=O)[C@@H](N)CO [Compound 59]"
observed_value = 1.62

[[record]]
compound = "COc1cc2ccn3c(c(-c4ccc(OC(=O)[C@H](C)N)c(OC)c4)c4c5cc(OC)c(OC(=O)[C@H](C)N)cc5oc(=O)c43)c2cc1OC [Compound 20]"
observed_value = 2.24

[[record]]
compound = "COc1cc(-c2c3n(c4c(=O)oc5cc(OC(=O)[C@H](Cc6c[nH]c7ccccc67)NC(=O)OC(C)(C)C)c(OC)cc5c24)CCc2cc(OC(=O)[C@H](Cc4c[nH]c5ccccc45)NC(=O)OC(C)(C)C)c(OC)cc2-3)ccc1OC(=O)[C@H](Cc1c[nH]c2ccccc12)NC(=O)OC(C)(C)C [Compound 29]"
observed_value = 1.55

[[record]]
compound = "COc1cc(-c2c3c4cc(OC)c(OC(=O)[C@@H](N)CCCCNC(=O)OCc5ccccc5)cc4oc(=O)c3n3ccc4c(OC(=O)[C@@H](N)CCCCNC(=O)OCc5ccccc5)c(OC)c(OC)cc4c23)ccc1OC(=O)[C@@H](N)CCCCNC(=O)OCc1ccccc1 [Compound 44]"
observed_value = 0.48

[[record]]
compound = "COc1cc2c(cc1OC)-c1c(-c3ccc(OS(C)(=O)=O)c(OC)c3)c3c4cc(OC)c(OS(C)(=O)=O)cc4oc(=O)c3n1CC2 [Compound 92]"
observed_value = 4.75

